# Tested on: strain V21
# protocol-details: Marine isolate swimming, strain V21
# Format: cell-based
property-label: Minimum inhibitory concentration, Swimming (µg/mL)
Expressed in µg/mL, but write only the number.

// below: answered compounds
CCCC(OC(C)=O)C1=C(Br)C(=CBr)OC1=O (stereo not shown) [Compound 3] = 25
CCCCC1=C(Br)C(=CBr)OC1=O [Compound 2] = 25
CCCC(O)C1=C(Br)C(=CBr)OC1=O (stereo not shown) [Compound 4] = 5

For the next question, use this compound.
Fill in: Minimum inhibitory concentration, Swimming of CCCCC1=C(Br)C(=C(Br)Br)OC1=O [Compound 1] is ___
25

---

# System: strain V21
# protocol-details: Marine isolate growth in liquid media, strain V21
# Assay type: cell-based
property-label: Minimum inhibitory concentration, Growth

CCCC(OC(C)=O)C1=C(Br)C(=CBr)OC1=O (stereo not shown) [Compound 3] = 5 µg/mL

Can you look up Minimum inhibitory concentration, Growth on strain V21 for CCCCC1=C(Br)C(=C(Br)Br)OC1=O [Compound 1] ?
25 µg/mL

Requested read-out Minimum inhibitory concentration, Growth, target or system strain V21, entry CCCCC1=C(Br)C(=CBr)OC1=O [Compound 2]
25 µg/mL

Lab note: need Minimum inhibitory concentration, Growth with strain V21 for entry CCCC(O)C1=C(Br)C(=CBr)OC1=O (stereo not shown) [Compound 4] , please look it up.
5 µg/mL

---

# Test system: strain R12
# protocol-details: Marine isolate swimming, strain R12
# Assay type: cell-based
Listed next: entries and their corresponding Minimum inhibitory concentration, Swimming.
Output spec: scalar in µg/mL, unitless text.

CCCC(OC(C)=O)C1=C(Br)C(=CBr)OC1=O (stereo not shown) = 50

Switching to the query record.
Give the measured Minimum inhibitory concentration, Swimming of CCCC(O)C1=C(Br)C(=CBr)OC1=O (stereo not shown) .
25

---

# Tested on: Helminthosporium sp.
# protocol-details: Fungal growth inhibition zone assay, Helminthosporium sp.
# Format: cell-based
# condition-info: amount added 100 μg
property-label: width of inhibition zone

Field: example entries. Status: answers known.
CCCC(OC(C)=O)C1=C(Br)C(=CI)OC1=O (stereo not shown) = 20 mm
CCCCC1=CC(=C(Br)Br)OC1=O = 20 mm
CCCC(OC(C)=O)C1=C(Br)C(=CBr)OC1=O (stereo not shown) = 6-20 mm
CCCCCCC1=CC(=C(Br)Br)OC1=O = 0 mm

Consider the compound shown here: CCCCC1=C(Br)C(=C(Br)Br)OC1=O What is its recorded width of inhibition zone?
20 mm

Return reported width of inhibition zone; argument: CCCCC1=C(Br)C(=CBr)OC1=O
20 mm

Field request: width of inhibition zone | item: C[C@@H]1[C@H](O)[C@@H](C)/C=C/C=C/C=C/C=C/C=C/C=C/C=C/[C@H](O[C@@H]2O[C@H](C)[C@@H](O)[C@H](N)[C@@H]2O)C[C@@H]2O[C@](O)(C[C@@H](O)C[C@@H](O)[C@H](O)CC[C@@H](O)C[C@@H](O)CC(=O)O[C@H]1C)C[C@H](O)[C@H]2C(=O)O [Amphotericin B, reference compound]
7-10 mm

---

# System: Candida albicans
# protocol-details: Fungal growth inhibition zone assay, Candida albicans
# Assay type: cell-based
# condition-info: amount added 100 μg
# Procedure: In addition to the tests described above, the effects of selected compounds of the general formula 2 on growth of bacteria, one yeast (Candida albicans) and one fungus (Helminthosporium sp.) were assessed. Bacteria were grown in liquid media in the presence of different concentrations of furanones and growth measured via changes in optical density (OD). Fungal assays were done by inoculating agar plates with spores. […] Zones of inhibition around these wells were measured after 48 hours.
property-label: width of inhibition zone (mm)
Numeric only. Scale: mm

Example compounds with recorded width of inhibition zone:
CCCCC1=CC(=C(Br)Br)OC1=O = 0
CCCCCCC1=CC(=C(Br)Br)OC1=O = 1

I have this compound here, C[C@@H]1[C@H](O)[C@@H](C)/C=C/C=C/C=C/C=C/C=C/C=C/C=C/[C@H](O[C@@H]2O[C@H](C)[C@@H](O)[C@H](N)[C@@H]2O)C[C@@H]2O[C@](O)(C[C@@H](O)C[C@@H](O)[C@H](O)CC[C@@H](O)C[C@@H](O)CC(=O)O[C@H]1C)C[C@H](O)[C@H]2C(=O)O [Amphotericin B, reference compound] , and I need its recorded width of inhibition zone.
1.14
